Target: HLA-A*02:01
Assay: IEDB peptide-MHC binding, purified MHC/competitive/radioactivity; bounds were set here for any values at or beyond the usual limits of such assays
Details: source organism: Mammarenavirus whitewaterense
pIC50: −log10 of the molar value.

| item.sequence | target.of.assay | pIC50 |
| --- | --- | --- |
| FTMEWFLSGL | HLA-A*02:01 | 7.15 |
| GLLQFIVFL | HLA-A*02:01 | 11.12 |
| GLVDVCFWST | HLA-A*02:01 | 7.15 |
| GLTDLGLLYT | HLA-A*02:01 | 6.99 |
| LLQFIVFLL | HLA-A*02:01 | 6.80 |
| CMINDTHFLL | HLA-A*02:01 | 7.18 |
| LDFAKVASV | HLA-A*02:01 | 5.32 |
| VCFWSTLFYV | HLA-A*02:01 | 6.04 |
| MIITAVNSL | HLA-A*02:01 | 5.61 |
| FTPQIICGNV | HLA-A*02:01 | 6.01 |

----------
Target: HLA-A*02:02
Experiment: IEDB peptide-MHC binding, purified MHC/competitive/radioactivity; bounds were set here for any values at or beyond the usual limits of such assays
Settings: source organism: Vaccinia virus WR

| item.sequence | IC50 |
| --- | --- |
| VMDTLNGIMM | 7.6 nM |
| GLKIEEIEKV | 15 nM |
| CLLTDTIESA | 53 nM |
| IISTDQDTM | 4300 nM |
| AAIDRQVSV | 933 nM |
| TLLNETAKVI | 2860 nM |
| TILDDNLYKV | 1080 nM |
| TTTFITVLT | 2460 nM |
| ALKNSQAELT | 2120 nM |
| PIIYSKAGNI | 654 nM |
| RVFKKIMSI | 350 nM |
| ITFLRPVLKA | 3160 nM |
| DVDMDFDLNI | 2040 nM |
| TICLKNEGV | 494 nM |
| NLVQYRILPM | 3990 nM |
| DLNAVTTNNL | 1830 nM |
| IMFMLIFNV | 0.15 nM |
| IMRNFLRSIA | 60 nM |
| KLFKRERDA | 2390 nM |
| SVDIETAIRA | 2830 nM |
| CTNDIYCDEI | 2460 nM |
| MIHKTYIDV | 1400 nM |
| NIDSIMSMM | 25 nM |
| YVIPDELIDV | 18 nM |
| AAKTPVIVV | 1360 nM |
| DIPTFNSLNT | 2020 nM |
| GLILFVLAL | 129 nM |
| AIRAGYSIV | 1200 nM |
| LLNETAKVI | 319 nM |
| NIEIMDKEQL | 3470 nM |
| EIMDKEQLL | 183 nM |
| LAEHISDSI | 45 nM |
| NQGNILMDSI | 3940 nM |
| MLLNVQTLI | 0.17 nM |
| GARVIWMDA | 4600 nM |
| HILHAYCGI | 123 nM |
| FTILEYLYI | 1560 nM |
| ALVSDCAST | 701 nM |
| GMSIVCIVA | 190 nM |
| GIADIRDKYM | 0.69 nM |
| ILFQNNDINA | 23 nM |
| FVNFNSVKNL | 2020 nM |
| AISAVYFKA | 3.7 nM |
| ALTDVEKRI | 74 nM |

----------
Target: HLA-A*68:02
Test: IEDB peptide-MHC binding, cellular MHC/competitive/fluorescence; bounds were set here for any values at or beyond the usual limits of such assays
Conditions: source organism: Mammarenavirus guanaritoense

| item.sequence | target.of.assay | IC50 |
| --- | --- | --- |
| YVIGLLPQS | HLA-A*68:02 | ≥ 70 µM |
| KNAGYLVGR | HLA-A*68:02 | ≥ 70 µM |
| FMNDLQVSR | HLA-A*68:02 | 26.3 µM |

----------
Reported IC50 values are given for each entry in this list.
Target: HLA-A*02:06
Assay: IEDB peptide-MHC binding, cellular MHC/competitive/fluorescence; bounds were set here for any values at or beyond the usual limits of such assays
Conditions: source organism: Mammarenavirus whitewaterense

| item.sequence | IC50 |
| --- | --- |
| LDFAKVASV | 10.6 µM |
| YCHGILLKDV | 15 µM |
| INISGYNLSL | 11.4 µM |
| KTVAGSFAS | 9.14 µM |

----------
Target: HLA-A*02:03
Experiment: IEDB peptide-MHC binding, purified MHC/competitive/radioactivity; bounds were set here for any values at or beyond the usual limits of such assays
Conditions: source organism: Vaccinia virus WR
pIC50: −log10 of the molar value.
The label depends only on pIC50: TRUE if it is at least 7, FALSE if it is smaller.

| item.sequence | target.of.assay | answer.label |
| --- | --- | --- |
| AADLTQIFEV | HLA-A*02:03 | FALSE |
| LIYRQLTSNV | HLA-A*02:03 | TRUE |
| SMKGENVFI | HLA-A*02:03 | TRUE |
| SMSQELAEL | HLA-A*02:03 | TRUE |
| LINLVQYRIL | HLA-A*02:03 | FALSE |
| SASDMQKFTI | HLA-A*02:03 | FALSE |
| IMTSTRTIIL | HLA-A*02:03 | TRUE |
| MLPESDLDKV | HLA-A*02:03 | FALSE |
| IVPEFAKQYV | HLA-A*02:03 | TRUE |
| YLGIFKNNDV | HLA-A*02:03 | TRUE |
| KINNNRIVAM | HLA-A*02:03 | FALSE |
| LAEHISDSI | HLA-A*02:03 | FALSE |
| ITNILGGVL | HLA-A*02:03 | FALSE |
| VIPDELIDVL | HLA-A*02:03 | FALSE |
| SLVKESMASL | HLA-A*02:03 | TRUE |
| IVCIVAAVII | HLA-A*02:03 | FALSE |
| AMLKSKNINI | HLA-A*02:03 | FALSE |
| NLERETGLSA | HLA-A*02:03 | FALSE |
| KIMEIVSHL | HLA-A*02:03 | TRUE |
| IIELPYVGDT | HLA-A*02:03 | FALSE |
| YASLTTIGTI | HLA-A*02:03 | FALSE |
| ILANERYRSA | HLA-A*02:03 | TRUE |
| LLNVQTLISL | HLA-A*02:03 | TRUE |
| DTMSIYIAVA | HLA-A*02:03 | TRUE |
| EAFETQSGAL | HLA-A*02:03 | FALSE |
| AISAVYFKA | HLA-A*02:03 | FALSE |
| SLVITYCLV | HLA-A*02:03 | FALSE |
| EVGTNFGTI | HLA-A*02:03 | FALSE |
| IISSKQYPA | HLA-A*02:03 | FALSE |
| FVNFNSVKNL | HLA-A*02:03 | FALSE |
| ALTDVEKRI | HLA-A*02:03 | FALSE |
| MMNITRLEVI | HLA-A*02:03 | TRUE |
| RAKRKPAMST | HLA-A*02:03 | FALSE |
| ATLNTLITL | HLA-A*02:03 | FALSE |
| EIDVSEVKTL | HLA-A*02:03 | FALSE |
| IMSIGFEARI | HLA-A*02:03 | FALSE |
| AILHNIYRL | HLA-A*02:03 | FALSE |
| TQVKELGIAI | HLA-A*02:03 | FALSE |

----------
Target: HLA-A*02:03
Assay: IEDB peptide-MHC binding, cellular MHC/competitive/fluorescence; bounds were set here for any values at or beyond the usual limits of such assays
Settings: source organism: Vaccinia virus WR
pIC50: −log10 of the molar value.

| item.sequence | modifier | pIC50 |
| --- | --- | --- |
| VAVNKSNKPL | = | 5.29 |
| LTNKKYRCMA | = | 5.27 |
| LTPFEKEFT | = | 4.68 |
| DLAIKQYGDI | = | 4.48 |
| LIFNVKSKLL | = | 5.17 |
| TIEDDKIVTM | = | 4.76 |
| IASKINNNRI | = | 4.73 |
| CVDIFTEGKI | = | 4.76 |
| QTGINNVQSL | = | 4.61 |
| SITPNNLNKI | ≤ | 4.15 |
| RVTKRDESSI | = | 4.97 |
| PVIVPDIKL | = | 4.48 |
| IAVSVYGAIT | = | 5.03 |
| STTGEWPLI | = | 4.35 |
| ALEPRKEIDV | = | 4.95 |
| TQSGALEVLM | = | 4.81 |
| PLSPDTCLLA | = | 5.03 |
| KIDKLTFQI | = | 4.98 |
| DIIDLLLPST | = | 5.18 |
| RTWKVLSIMA | = | 5.22 |
| CAVIPFDDIV | = | 5.13 |
| ETNIGCAVNT | = | 4.43 |
| TIESAKTKI | = | 4.27 |
| KIQLFSDFTI | ≤ | 4.15 |
| PLPCQLMYAL | = | 5.06 |
| DIKYDNKLL | = | 4.30 |
| SAEDNYLAKL | ≤ | 4.15 |
| PAMSTYSDI | = | 4.69 |
| LALWDSNFFT | = | 4.70 |
| ETIQKDINI | = | 4.29 |
| SARALKAYFT | = | 5.11 |
| PTIEDDKIVT | = | 4.69 |
| RQQLEDIFM | = | 4.57 |
| TTELNIVDEI | ≤ | 4.15 |
| AVYFKAKWLT | = | 5.05 |
| DIKYISRDEL | = | 5.02 |
| KLTKDRKML | = | 4.44 |
| ETFPNVHEHI | = | 5.18 |
| IAEYIAGLKI | = | 4.64 |
| LAIKNYYRKT | = | 5.14 |
| LISILMIFI | = | 5.30 |
| IMECSRMLDT | = | 5.14 |
